target-or-system: T1, 4H908-bN
T1 chain: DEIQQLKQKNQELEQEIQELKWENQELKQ
method-summary: two-hybrid library CCNG1;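 further: natural log of median RNA to DNA barcode read ratio; higher means stronger binding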
readout-name: interaction score

P. DKNQQLEQKIQELKQKIQELEWENQELEQ [4H3427-bN]
Q. DKIQQLKQENQELEQKIQELKWEIQELEQ [4H2729-bN]
R. DKIQQLKQEIQELEQKNQELKWEIQELKQ [4H2618-bN]
S. DENQQLEQKNQELEQKIQELEWKIQELKQ [4H1446-bN]
Query: List the 4 binders shown above, ordered by increasing interaction score. Please respond by ranking the labels in the order requested.
Response: Q, R, P, S
